# Tested on: PBMC
# PROCEDURE_SUMMARY: Immunosuppressive activity against human PBMC assessed as inhibition of LPS-induced IL1-beta production at 10 ug/ml after 24 hrs by ELISA
# Format: functional
Label Fulfilled for high-side inhibition at 10 µg/mL (at or above 20%) and Not fulfilled for low-side inhibition at 10 µg/mL (below it).

>>> df
                                 smiles_str          group
0  C=C1C[C@H]2[C@@](C)(CO)C(=O)CC[C@]2(C)c2cc(O)c(C(C)C)cc21  Not fulfilled
1  C=C1C[C@H]2[C@@](C)(CO)[C@@H](O)CC[C@]2(C)C2=C1C(=O)C(C(C)C)=CC2=O  Not fulfilled
2  CC(C)c1ccc2c(c1)C(=O)C[C@H]1[C@@](C)(CO)C(=O)CC[C@]21C      Fulfilled
3  C[C@@]1(O)C[C@@]23CC[C@H]4[C@@]5(CCC[C@]4(C)C(=O)OC5)[C@@H]2CC[C@H]1C3      Fulfilled

Q: Hi team, for C=C[C@]1(C)CC[C@@H]2[C@@]3(C)CCC[C@@](C)(C(=O)O)[C@@H]3CC[C@@]2(C)O1 , is the recorded inhibition at 10 µg/mL at or above 20%?
Result: Fulfilled

Q: Hi team, for C[C@@]12CCC[C@@](C)(C(=O)O)[C@@H]1CC[C@@]13C[C@@H](CC[C@H]12)[C@@H](CO)C3 , is the recorded inhibition at 10 µg/mL at or above 20%?
Result: Not fulfilled

====

# System: PBMC
# PROCEDURE_SUMMARY: Immunosuppressive activity against human PBMC assessed as inhibition of LPS-induced IFN-gamma production at 10 ug/ml after 24 hrs by ELISA
# Type: functional
Label yes (1) for high-side inhibition at 10 µg/mL (at or above 90%) and no (0) for low-side inhibition at 10 µg/mL (below it).

These solved cases illustrate the format of a correct answer.
>>> print(df.to_string())
                                 smiles_str  system_under_test    group
0  C=C1C[C@H]2[C@@](C)(CO)C(=O)CC[C@]2(C)c2cc(O)c(C(C)C)cc21               PBMC   no (0)
1  CC(C)c1ccc2c(c1)C(=O)C[C@H]1[C@@](C)(CO)C(=O)CC[C@]21C               PBMC   no (0)
2  C=C[C@]1(C)CC[C@@H]2[C@@]3(C)CCC[C@@](C)(C(=O)O)[C@@H]3CC[C@@]2(C)O1               PBMC  yes (1)
3  C[C@@]1(O)C[C@@]23CC[C@H]4[C@@]5(CCC[C@]4(C)C(=O)OC5)[C@@H]2CC[C@H]1C3               PBMC  yes (1)

Continue with the molecule presented below.
Q: Hi team, for C[C@@]12CCC[C@@](C)(C(=O)O)[C@@H]1CC[C@@]13C[C@@H](CC[C@H]12)[C@@H](CO)C3 , is the recorded inhibition at 10 µg/mL at or above 90%?
Result: no (0)

====

# Tested on: PBMC
# PROCEDURE_SUMMARY: Immunosuppressive activity against human PBMC assessed as inhibition of LPS-induced IL2 production at 10 ug/ml after 24 hrs by ELISA
# Type: functional
Label T for high-side inhibition at 10 µg/mL (at or above 60%) and F for low-side inhibition at 10 µg/mL (below it).

These solved cases illustrate the format of a correct answer.
>>> df
                                 smiles_str  group
0  C[C@@]12CCC[C@@](C)(C(=O)O)[C@@H]1CC[C@@]13C[C@@H](CC[C@H]12)[C@@H](CO)C3      F
1  C=C1C[C@H]2[C@@](C)(CO)C(=O)CC[C@]2(C)c2cc(O)c(C(C)C)cc21      F
2  C=C[C@]1(C)CC[C@@H]2[C@@]3(C)CCC[C@@](C)(C(=O)O)[C@@H]3CC[C@@]2(C)O1      T

Q: Hi team, for CC(C)c1ccc2c(c1)C(=O)C[C@H]1[C@@](C)(CO)C(=O)CC[C@]21C , is the recorded inhibition at 10 µg/mL at or above 60%?
Result: T

Q: Hi team, for C=C1C[C@H]2[C@@](C)(CO)[C@@H](O)CC[C@]2(C)C2=C1C(=O)C(C(C)C)=CC2=O , is the recorded inhibition at 10 µg/mL at or above 60%?
Result: T

Q: Hi team, for C[C@@]1(O)C[C@@]23CC[C@H]4[C@@]5(CCC[C@]4(C)C(=O)OC5)[C@@H]2CC[C@H]1C3 , is the recorded inhibition at 10 µg/mL at or above 60%?
Result: T
